Each record here notes measured MIC.
Test system: M. suipneumoniae HR(2)
Assay: Anti-mycoplasmal MIC in vitro, Friis broth agarose (Table 1)
Format: cell-based
Conditions: Mesomycoplasma hyopneumoniae, 144 h; M. suipneumoniae HR(2); in vitro, 6 days 37° C.; read-out: MIC
Reply with just the number (in mg/L).

Consider the reported MIC for these compounds:
{"COMPOUND": "C/C(=C\\C(=O)OC(C)c1cccc([N+](=O)[O-])c1)CC1OCC(CC2OC2C(C)C(C)O)C(O)C1O (stereo not shown) [Example 3, 1-(m-nitrophenyl)ethyl monate A]", "RECORDED RESULT": 0.25}
{"COMPOUND": "C/C(=C\\C(=O)OCc1cccc([N+](=O)[O-])c1)CC1OCC(CC2OC2C(C)C(C)O)C(O)C1O (stereo not shown) [Example 2, m-nitrobenzyl monate A]", "RECORDED RESULT": 0.025}
{"COMPOUND": "C/C(=C\\C(=O)OC(C)c1ccc([N+](=O)[O-])cc1)CC1OCC(CC2OC2C(C)C(C)O)C(O)C1O (stereo not shown) [Example 4, 1-(p-nitrophenyl)ethyl monate A]", "RECORDED RESULT": 2.5}

Attention now turns to another entry.
In: Report value: MIC, system: M. suipneumoniae HR(2), compound: C/C(=C\C(=O)OCc1ccc([N+](=O)[O-])cc1)CC1OCC(CC2OC2C(C)C(C)O)C(O)C1O (stereo not shown) [Example 1, p-nitrobenzyl monate A]
Out: 0.1
